Target: T1, hArtemin-MMH (human)
T1 construct: also called hARTN.mmh; hARTN (A108-G220).mmh
T1 chain: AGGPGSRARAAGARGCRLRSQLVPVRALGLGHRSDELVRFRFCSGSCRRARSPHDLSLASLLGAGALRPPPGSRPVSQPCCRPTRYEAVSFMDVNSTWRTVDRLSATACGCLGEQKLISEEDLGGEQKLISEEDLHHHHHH
Test: SPR Biacore T200, hArtemin-MMH captured by anti-myc mAb, mAb injected, 25 C
observation type: 60 nM Artemin mAb Bound (RU)
Value expressed in RU; do not type the unit.

Completed entries (count: 3):
>>> test_value("H4H33335P (antibody, human IgG4 S228P, kappa, V domains shown, Fully human antibody; also called Artemin mAb; anti-ARTN antibody) VH: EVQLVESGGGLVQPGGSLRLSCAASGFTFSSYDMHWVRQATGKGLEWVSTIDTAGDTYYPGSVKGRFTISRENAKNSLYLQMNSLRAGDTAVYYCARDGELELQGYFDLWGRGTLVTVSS VL: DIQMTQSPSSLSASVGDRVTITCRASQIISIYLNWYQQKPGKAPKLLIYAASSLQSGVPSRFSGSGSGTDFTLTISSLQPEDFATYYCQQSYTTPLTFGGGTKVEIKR")
4
>>> test_value("H4H33349P (antibody, human IgG4 S228P, kappa, V domains shown, Fully human antibody; also called Artemin mAb; anti-ARTN antibody) VH: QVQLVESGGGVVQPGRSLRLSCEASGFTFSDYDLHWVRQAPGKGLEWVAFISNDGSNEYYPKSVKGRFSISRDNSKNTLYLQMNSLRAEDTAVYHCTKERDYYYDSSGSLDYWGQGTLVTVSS VL: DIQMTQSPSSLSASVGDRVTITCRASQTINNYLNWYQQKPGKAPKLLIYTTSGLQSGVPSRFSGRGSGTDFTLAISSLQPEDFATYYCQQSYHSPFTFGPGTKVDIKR")
18
>>> test_value("H4H33331P (antibody, human IgG4 S228P, kappa, V domains shown, Fully human antibody (human variable and constant domains) from a VELOCIMMUNE mouse; also called Artemin mAb; anti-ARTN antibody) VH: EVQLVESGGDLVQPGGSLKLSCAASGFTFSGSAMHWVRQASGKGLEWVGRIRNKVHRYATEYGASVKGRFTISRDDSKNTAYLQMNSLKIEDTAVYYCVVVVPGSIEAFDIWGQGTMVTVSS VL: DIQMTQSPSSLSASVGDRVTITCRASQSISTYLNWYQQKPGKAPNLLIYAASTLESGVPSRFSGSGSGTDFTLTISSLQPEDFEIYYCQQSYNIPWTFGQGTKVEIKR")
7

Moving on to the next binder.
Quick one: give measured 60 nM Artemin mAb Bound (RU) for H4H33336P (antibody, human IgG4 S228P, kappa, V domains shown, Fully human antibody; also called Artemin mAb; anti-ARTN antibody) VH: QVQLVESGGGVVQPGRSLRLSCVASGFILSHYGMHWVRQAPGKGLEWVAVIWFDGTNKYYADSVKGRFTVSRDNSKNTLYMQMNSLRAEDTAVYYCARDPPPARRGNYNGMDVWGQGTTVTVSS VL: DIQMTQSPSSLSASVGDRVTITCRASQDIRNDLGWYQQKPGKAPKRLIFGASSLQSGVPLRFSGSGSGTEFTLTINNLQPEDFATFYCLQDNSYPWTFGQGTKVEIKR 15
